Assay system: SAP05–Rpn10^vWA complex (Aster Yellows phytoplasma strain Witches Broom (AYWB) | Arabidopsis thaliana) (UniProt P55034)
Test summary: ITC; SPL5^ZnF from the syringe (250 μM for wild-type SAP05, 200 μM for the SAP05–Rpn10^vWA complex or SAP05 mutants) into 20 μM partner in the cell; 25 °C, 20 mM HEPES pH 7.5, 150 mM NaCl; one-site binding model
Property: Kd (µM)
Give bare numbers, in µM.

Give the measured Kd of ZnF domain of Arabidopsis thaliana SPL5, residues 60 to 127 (domain or fragment) SRLCQVDRCTVNLTEAKQYYRRHRVCEVHAKASAATVAGVRQRFCQQCSRFHELPEFDEAKRSCRRRL .
0.65
